- assay: Inhibition of L1 (unknown origin) expressed in Escherichia coli BL21(DE3) at 100 uM using cefazolin as substrate preincubated for 30 mins followed by substrate addition by UV-Visible spectrophotometric method relative to control
Values of inhibition greater than or equal to 90% map to T; values below map to F.

smiles_text	group_label
Cc1ccccc1NC(=O)CSCC(=O)[O-].[K+]	T
CC(C)CNC(=O)CSCC(=O)[O-].[K+]	F
O=C([O-])CSCC(=O)Nc1ccccc1Cl.[K+]	F
O=C([O-])CSCC(=O)Nc1ccccc1[N+](=O)[O-].[K+]	F
O=C([O-])CSCC(=O)Nc1ccc(C(=O)O)cc1.[K+]	F
CCCCc1ccc(NC(=O)CSCC(=O)[O-])cc1.[K+]	T
O=C([O-])CSCC(=O)Nc1ccc(Cl)cc1.[K+]	F
Cc1ccc(NC(=O)CSCC(=O)[O-])cc1.[K+]	T
O=C([O-])CSCC(=O)Nc1cccc(Cl)c1.[K+]	F
O=C([O-])CSCC(=O)Nc1ccc([N+](=O)[O-])cc1.[K+]	F
O=C([O-])CSCC(=O)Nc1ccccc1O.[K+]	T
O=C([O-])CSCC(=O)NCc1ccccc1.[K+]	T
